Test system: 648629-189-R-J1-PDC spheroids with HUVEC/MSC, viability;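 further: spheroids exposed to agents for seven days before reading; percent of vehicle control luminescence where 100% = DMSO treated spheroids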
experiment_notes: Anticancer human tumor 648629-189-R-J1-PDC patient-derived bladder carcinoma cell line growth inhibition [PI3K]
settings: second compound 0.01 µM; first compound 0.000316 µM; hits give low values
property_measured: viability, T/C

Solved entries (count: 5):
CC(C)n1nc(-c2ccc3oc(N)nc3c2)c2c(N)ncnc21 + COc1c(OCCCN2CCOCC2)ccc2c3n(c(=NC(=O)c4cnc(N)nc4)nc12)CCN3 | 86.2%
CC(=O)c1c(C)c2cnc(Nc3ccc(N4CCNCC4)cn3)nc2n(C2CCCC2)c1=O + CC(Nc1ccc2c(c1)OCCn1cc(N3C(=O)OCC3C(F)F)nc1-2)C(N)=O | 101%
CC(C)n1nc(-c2ccc3oc(N)nc3c2)c2c(N)ncnc21 + CC(Nc1ccc2c(c1)OCCn1cc(N3C(=O)OCC3C(F)F)nc1-2)C(N)=O | 102%
Cn1ncnc1[C@H]1c2n[nH]c(=O)c3cc(F)cc(c23)N[C@@H]1c1ccc(F)cc1 + CC(Nc1ccc2c(c1)OCCn1cc(N3C(=O)OCC3C(F)F)nc1-2)C(N)=O | 115%
Cn1ncnc1[C@H]1c2n[nH]c(=O)c3cc(F)cc(c23)N[C@@H]1c1ccc(F)cc1 + COc1c(OCCCN2CCOCC2)ccc2c3n(c(=NC(=O)c4cnc(N)nc4)nc12)CCN3 | 92.3%

Now turn to the next compound.
Consider CC(=O)c1c(C)c2cnc(Nc3ccc(N4CCNCC4)cn3)nc2n(C2CCCC2)c1=O + COc1c(OCCCN2CCOCC2)ccc2c3n(c(=NC(=O)c4cnc(N)nc4)nc12)CCN3 . Its measured viability, T/C is 98.2%
